# Tested on: IL-12
# assayDetails: IL-12 levels in sera upon i.v. glycolipid administration to C57BL/6 mice (ELISA)
# Assay type: in vivo
# Parameters: unit not given here
# setupConditions: C57BL/6, serum, hour 2
Listing of entries alongside the reported IL-12 levels, test 1.
metricName: IL-12 levels, test 1

>  <compound>
CCCCCCCCCCCCCCCCCCCCCCCCCCCCC(=O)N[C@@H](/C=C/[C@H]1O[C@H](CO)[C@H](O)[C@H](O)[C@H]1O)[C@H](O)[C@H](O)CCCCCCCCCCCCCC

>  <metricName>
IL-12 levels, test 1

>  <observedValue>
178

$$$$
>  <compound>
CCCCCCCCCCCCCCCCCCCCCCCCCC(=O)N[C@@H](CO[C@H]1O[C@H](CO)[C@H](O)[C@H](O)[C@H]1O)[C@H](O)[C@H](O)CCCCCCCCCCCCCC [KRN, reference compound]

>  <metricName>
IL-12 levels, test 1

>  <observedValue>
0

$$$$
>  <compound>
CCCCCCCCCCCCCCCCCC/C=C/CCCCCCCCC(=O)N[C@@H](/C=C/[C@H]1O[C@H](CO)[C@H](O)[C@H](O)[C@H]1O)[C@H](O)[C@H](O)CCCCCCCCCCCCCC

>  <metricName>
IL-12 levels, test 1

>  <observedValue>
40

$$$$

* * *

# System: IL-4
# assayDetails: IL-4 levels in sera upon i.v. glycolipid administration to BALB/c mice (ELISA)
# Assay type: in vivo
# Set-up: unit not given here
# setupConditions: hour 48
// values below are reported IL-4 level, test 2

>  <molecule>
CCCCCCCCCCCCCCCCCC/C=C/CCCCCCCCC(=O)N[C@@H](/C=C/[C@H]1O[C@H](CO)[C@H](O)[C@H](O)[C@H]1O)[C@H](O)[C@H](O)CCCCCCCCCCCCCC

>  <IL-4 level, test 2>
42

$$$$
>  <molecule>
CCCCCCCCCCCCCCCCCCCCCCCCCC(=O)N[C@@H](CO[C@H]1O[C@H](CO)[C@H](O)[C@H](O)[C@H]1O)[C@H](O)[C@H](O)CCCCCCCCCCCCCC [KRN, reference compound]

>  <IL-4 level, test 2>
42

$$$$
>  <molecule>
CCCCCCCCCCCCCC[C@@H](O)[C@@H](O)[C@H](CC[C@H]1O[C@H](CO)[C@H](O)[C@H](O)[C@H]1O)NC(=O)CCCCCCCCCCCCCCCCCCCOCCCCC

>  <IL-4 level, test 2>
39

$$$$
>  <molecule>
CCCCCCCCCCCCCCCCCCCCCCCCCCCCC(=O)N[C@@H](/C=C/[C@H]1O[C@H](CO)[C@H](O)[C@H](O)[C@H]1O)[C@H](O)[C@H](O)CCCCCCCCCCCCCC

>  <IL-4 level, test 2>
39

$$$$

* * *

Catalogue of IL-4 level, test 1 values
# Test system: IL-4
# assayDetails: IL-4 levels in sera upon i.v. glycolipid administration to C57BL/6 mice (ELISA)
# Assay type: in vivo
# Parameters: unit not given here
# setupConditions: hour 72
metricName: IL-4 level, test 1

>  <compound>
CCCCCCCCCCCCCCCCCCCCCCCCCC(=O)N[C@@H](CO[C@H]1O[C@H](CO)[C@H](O)[C@H](O)[C@H]1O)[C@H](O)[C@H](O)CCCCCCCCCCCCCC [KRN, reference compound]

>  <metricName>
IL-4 level, test 1

>  <observedValue>
0

$$$$
>  <compound>
CCCCCCCCCCCCCCCCCC/C=C/CCCCCCCCC(=O)N[C@@H](/C=C/[C@H]1O[C@H](CO)[C@H](O)[C@H](O)[C@H]1O)[C@H](O)[C@H](O)CCCCCCCCCCCCCC

>  <metricName>
IL-4 level, test 1

>  <observedValue>
61

$$$$
>  <compound>
CCCCCCCCCCCCCCCCC/C=C/CCCCCCCCC(=O)N[C@@H](CC[C@H]1O[C@H](CO)[C@H](O)[C@H](O)[C@H]1O)[C@H](O)[C@H](O)CCCCCCCCCCCCCC

>  <metricName>
IL-4 level, test 1

>  <observedValue>
54

$$$$
>  <compound>
CCCCCCCCCCCCCCCCCCCCCCCCCCCCC(=O)N[C@@H](/C=C/[C@H]1O[C@H](CO)[C@H](O)[C@H](O)[C@H]1O)[C@H](O)[C@H](O)CCCCCCCCCCCCCC

>  <metricName>
IL-4 level, test 1

>  <observedValue>
59

$$$$

* * *

# Tested on: IFN-γ
# assayDetails: IFN-γ levels in sera upon i.v. glycolipid administration to C57BL/6 mice (ELISA)
# Format: in vivo
# Set-up: unit not given here
# setupConditions: C57BL/6, serum, hour 48
Here the recorded IFN-γ levels, test 2 is given for each entry.

>  <compound>
CCCCCCCCCCCCCCCCCCCCCCCCCC(=O)N[C@@H](CC[C@H]1O[C@H](CO)[C@H](O)[C@H](O)[C@H]1O)[C@H](O)[C@H](O)CCCCCCCCCCCCCC [CRONY, reference compound]

>  <testTarget>
IFN-γ

>  <IFN-γ levels, test 2>
757

$$$$
>  <compound>
CCCCCCCCCCCCCCCCCCCCCCCCCC(=O)N[C@@H](CO[C@H]1O[C@H](CO)[C@H](O)[C@H](O)[C@H]1O)[C@H](O)[C@H](O)CCCCCCCCCCCCCC [KRN, reference compound]

>  <testTarget>
IFN-γ

>  <IFN-γ levels, test 2>
0

$$$$
>  <compound>
CCCCCCCCCCCCCC[C@@H](O)[C@@H](O)[C@H](CC[C@H]1O[C@H](CO)[C@H](O)[C@H](O)[C@H]1O)NC(=O)CCCCCCCCCCCCCCCCCCCOCCCCCC [A-4]

>  <testTarget>
IFN-γ

>  <IFN-γ levels, test 2>
903

$$$$
>  <compound>
CCCCCCCCCCCCCCCCCC/C=C/CCCCCCCCC(=O)N[C@@H](/C=C/[C@H]1O[C@H](CO)[C@H](O)[C@H](O)[C@H]1O)[C@H](O)[C@H](O)CCCCCCCCCCCCCC [A-1]

>  <testTarget>
IFN-γ

>  <IFN-γ levels, test 2>
435

$$$$
>  <compound>
CCCCCCCCCCCCCCCCCCCCCCCCCCCCC(=O)N[C@@H](/C=C/[C@H]1O[C@H](CO)[C@H](O)[C@H](O)[C@H]1O)[C@H](O)[C@H](O)CCCCCCCCCCCCCC [A-2]

>  <testTarget>
IFN-γ

>  <IFN-γ levels, test 2>
504

$$$$
>  <compound>
CCCCCCCCCCCCCC[C@@H](O)[C@@H](O)[C@H](CC[C@H]1O[C@H](CO)[C@H](O)[C@H](O)[C@H]1O)NC(=O)CCCCCCCCCCCCCCCCCCCOCCCCC [A-5]

>  <testTarget>
IFN-γ

>  <IFN-γ levels, test 2>
341

$$$$
>  <compound>
CCCCCCCCCCCCCCCCC/C=C/CCCCCCCCC(=O)N[C@@H](CC[C@H]1O[C@H](CO)[C@H](O)[C@H](O)[C@H]1O)[C@H](O)[C@H](O)CCCCCCCCCCCCCC [A-3]

>  <testTarget>
IFN-γ

>  <IFN-γ levels, test 2>
306

$$$$

* * *

# Test system: IL-4
# assayDetails: IL-4 levels in sera upon i.v. glycolipid administration to BALB/c mice (ELISA)
# Assay type: in vivo
# Parameters: unit not given here
# setupConditions: hour 48

>  <compound>
CCCCCCCCCCCCCCCCC/C=C/CCCCCCCCC(=O)N[C@@H](CC[C@H]1O[C@H](CO)[C@H](O)[C@H](O)[C@H]1O)[C@H](O)[C@H](O)CCCCCCCCCCCCCC [A-3]

>  <IL-4 level, test 2>
38

$$$$
>  <compound>
CCCCCCCCCCCCCC[C@@H](O)[C@@H](O)[C@H](CC[C@H]1O[C@H](CO)[C@H](O)[C@H](O)[C@H]1O)NC(=O)CCCCCCCCCCCCCCCCCCCOCCCCCC [A-4]

>  <IL-4 level, test 2>
66

$$$$
>  <compound>
CCCCCCCCCCCCCCCCCCCCCCCCCC(=O)N[C@@H](CC[C@H]1O[C@H](CO)[C@H](O)[C@H](O)[C@H]1O)[C@H](O)[C@H](O)CCCCCCCCCCCCCC [CRONY, reference compound]

>  <IL-4 level, test 2>
48

$$$$

* * *

# Test system: IL-4
# assayDetails: IL-4 levels in sera upon i.v. glycolipid administration to C57BL/6 mice (ELISA)
# Assay type: in vivo
# Design: unit not given here
# setupConditions: hour 72
The following compounds are listed with their measured IL-4 level, test 1 values.

>  <compound>
CCCCCCCCCCCCCCCCCCCCCCCCCC(=O)N[C@@H](CC[C@H]1O[C@H](CO)[C@H](O)[C@H](O)[C@H]1O)[C@H](O)[C@H](O)CCCCCCCCCCCCCC [CRONY, reference compound]

>  <testTarget>
IL-4

>  <IL-4 level, test 1>
15

$$$$
>  <compound>
CCCCCCCCCCCCCC[C@@H](O)[C@@H](O)[C@H](CC[C@H]1O[C@H](CO)[C@H](O)[C@H](O)[C@H]1O)NC(=O)CCCCCCCCCCCCCCCCCCCOCCCCC

>  <testTarget>
IL-4

>  <IL-4 level, test 1>
69

$$$$
>  <compound>
CCCCCCCCCCCCCC[C@@H](O)[C@@H](O)[C@H](CC[C@H]1O[C@H](CO)[C@H](O)[C@H](O)[C@H]1O)NC(=O)CCCCCCCCCCCCCCCCCCCOCCCCCC

>  <testTarget>
IL-4

>  <IL-4 level, test 1>
54

$$$$
